Biological target: T1, Murine APRIL (mouse, UniProt Q9D777 105-241, limits assumed)
T1 sequence (looked up): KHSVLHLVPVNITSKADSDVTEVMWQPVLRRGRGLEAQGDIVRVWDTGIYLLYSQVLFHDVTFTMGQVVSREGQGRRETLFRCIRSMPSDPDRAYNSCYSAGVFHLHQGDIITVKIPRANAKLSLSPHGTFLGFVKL
Test: shotgun scan, phage display
Value type: F (APRIL)
Write no unit; give the number alone.

F (APRIL) for SLSCRKEQGKFYDHLLRDCISCASICGQHPKQCAYFCENKLA (receptor, phage library variant, format as m9) [TACI_d2 R109A] is 1.5

F (APRIL) for SLSCRKEQGKFYDHLLRDCISCASICGQHPKECAYFCENKLR (receptor, phage library variant, format as m9) [TACI_d2 Q99E] is 1.6
